I'd be grateful if you could share measured LPS % cell toxicity for these entries.
- System: primary rat microglia
- CONDITIONS_USED: rat
Field format: number, assumed %, no unit text.

Enquiry: State its LPS % cell toxicity: O=C(C1CCCCC1)N1CC(=O)N2CCc3ccccc3C2C1 (stereo not drawn) [Praziquantel]
Return: 0

Enquiry: Dear colleague, please send me the reported LPS % cell toxicity for CC1(C)S[C@@H]2[C@H](NC(=O)[C@H](NC(=O)N3CCNC3=O)c3ccccc3)C(=O)N2[C@H]1C(=O)O [Azlocillin Sodium] when you can.
Return: 0

Enquiry: # return recorded LPS % cell toxicity for entry C[C@]12CC[C@@H]3c4ccc(OC(=O)c5ccccc5)cc4CC[C@H]3[C@@H]1CC[C@@H]2O [Estradiol Benzoate]
Return: 0

---

- System: fibrin- and LPS-induced microglia activation
- PROTOCOL_DETAILS: cells
- Format: cell-based, rat
- CONDITIONS_USED: quadrant by fibrin and LPS inhibition in HTS of 1907 compounds
Structures can show the parent of a compound that is named as a salt.
RECORDED_METRIC: Quadrant (FIG. 5b)

CCCOc1ccc2[nH]c(NC(=O)OC)nc2c1 [Oxybendazole, reference compound] = Q3
CC(C(=O)O)c1ccc(CC2CCCC2=O)cc1 (stereo not shown) = Q4
O=C(c1ccc(F)cc1)C1CCN(CCn2c(=O)[nH]c3ccccc3c2=O)CC1 [Ketanserin Tartrate] = Q4
Cc1ccsc1/C=C/C1=NCCCN1C [Morantel Citrate] = Q4

---

- Tested on: primary rat microglia
- CONDITIONS_USED: rat
Structures can show the parent of a compound that is named as a salt.
RECORDED_METRIC: LPS % cell toxicity (%)
A number alone suffices; assume %.

Enquiry: Input O=C1CC[C@@]2(O)[C@H]3Cc4ccc(O)c5c4[C@@]2(CCN3CC2CC2)[C@H]1O5 [Naltrexone Hydrochloride] , output reported LPS % cell toxicity.
Return: 2

Enquiry: Look up and report measured LPS % cell toxicity for this entry: O=C(Nc1ccccc1)OCC(CN1CCCCC1)OC(=O)Nc1ccccc1 (stereo not shown) [Diperodon Hydrochloride]
Return: 1

Enquiry: Respond only with LPS % cell toxicity recorded for "CC(C)c1cccc(C(C)C)c1O"
Return: 0

Enquiry: Provide only the value of recorded LPS % cell toxicity for "CNCC[C@H](Oc1cccc2ccccc12)c1cccs1"
Return: 0

Enquiry: Provide measured LPS % cell toxicity value, entry: "NCCc1ccc(O)c(O)c1"
Return: 0

Enquiry: Tell me measured LPS % cell toxicity for "CN(C)c1ccc(C(=C2C=CC(=[N+](C)C)C=C2)c2ccc(N(C)C)cc2)cc1" please.
Return: 73

Enquiry: Read off the recorded LPS % cell toxicity for CN(C)CCOC(C)(c1ccccc1)c1ccccn1 (stereo not shown)
Return: 0

Enquiry: Consider the compound "Oc1ncnc2[nH]ncc12" and give its recorded LPS % cell toxicity.
Return: 0

Enquiry: Return LPS % cell toxicity for the following compound: "NCCc1c[nH]cn1"
Return: 0

Enquiry: Supply reported LPS % cell toxicity belonging to this compound: CN1C(C)(C)CCCC1(C)C [Pempidine Tartrate]
Return: 0

---

- Tested on: fibrin-induced microglia activation
- PROTOCOL_DETAILS: Image-based assay of fibrin-induced microglia activation (HTS and dose response)
- Assay type: cell-based, rat
- CONDITIONS_USED: Rattus norvegicus, Microglia, primary microglia HTS, fibrin stimulation; increased cell size (>800 μm^2) as marker of activation; read-out: Fibrin % inhibition
Counter-ions that a name gives are not always drawn.
Would you mind labelling by inhibition at 10 µM? At or over 10% is T, under is F.

Enquiry: Hi team, for COC(=O)C1=C(C)NC(C)=C(C(=O)OCCN(C)Cc2ccccc2)C1c1cccc([N+](=O)[O-])c1 (stereo not shown) , is the recorded inhibition at 10 µM at or above 10%?
Return: T

Enquiry: Check the entry CNCCCN1c2ccccc2CCc2ccccc21 [Desipramine hydrochloride, reference compound] : does inhibition at 10 µM equal or exceed 10%?
Return: F

Enquiry: Confirm if inhibition at 10 µM reported for the compound O=c1[nH]c2ccccc2n1C1CCN(CCCC(c2ccc(F)cc2)c2ccc(F)cc2)CC1 [Pimozide, reference compound] is 10% or above.
Return: T

Enquiry: Say whether CC(=O)OCC(=O)[C@@]1(O)CC[C@H]2[C@@H]3CCC4=CC(=O)C=C[C@]4(C)[C@@]3(Cl)[C@@H](Cl)C[C@@]21C [Dichlorisone acetate, reference compound] shows inhibition at 10 µM of 10% or more.
Return: T

Enquiry: Hello, I need to know if "CN(C)CC/C=C1/c2ccccc2COc2ccc(CC(=O)O)cc21" has measured inhibition at 10 µM not below 10%. Thanks!
Return: F

Enquiry: Given "O=C(c1cccnc1)N1CCOCC1" , state whether its inhibition at 10 µM is at least 10%.
Return: T

Enquiry: hey, is inhibition at 10 µM for this one >= 10%? NCCc1cc[nH]n1 [Betazole hydrochloride, reference compound]
Return: T

Enquiry: hey, is inhibition at 10 µM for this one >= 10%? "CN(C)c1ccc(O)c2c1C[C@H]1C[C@H]3[C@H](N(C)C)C(O)=C(C(N)=O)C(=O)[C@@]3(O)C(O)=C1C2=O"
Return: F

Enquiry: Please tell me: is the compound "O=[N+]([O-])OCC(CO[N+](=O)[O-])O[N+](=O)[O-]" at or over 10% in terms of inhibition at 10 µM?
Return: F

Enquiry: Check if inhibition at 10 µM >= 10% (inclusive). Item: "CCCc1nc(C(C)(C)O)c(C(=O)OCc2oc(=O)oc2C)n1Cc1ccc(-c2ccccc2-c2nnn[nH]2)cc1"
Return: F

Enquiry: Hi, just wondering whether "CCCCCCCCCCCCCCCCOP(=O)([O-])OCC[N+](C)(C)C" shows inhibition at 10 µM of 10% or higher.
Return: F

Enquiry: Could you tell me if the measured inhibition at 10 µM of CC(=O)NCc1c(I)c(NC(C)=O)c(I)c(C(=O)O)c1I [Iodamide] reaches 10% or more?
Return: T

Enquiry: Please tell me: is the compound CN(C)CCCOc1nn(Cc2ccccc2)c2ccccc12 [Benzydamine hydrochloride, reference compound] at or over 10% in terms of inhibition at 10 µM?
Return: T

Enquiry: Decide: inhibition at 10 µM of COc1c(C)c2c(c(O)c1C/C=C(\C)CCC(=O)OCCN1CCOCC1)C(=O)OC2 [Mycophenolate mofetil, reference compound] >= 10%?
Return: T

Enquiry: Answer whether inhibition at 10 µM of "C=C1c2cccc(O)c2C(=O)C2=C(O)[C@]3(O)C(=O)C(C(N)=O)=C(O)[C@@H](N(C)C)[C@@H]3[C@@H](O)[C@H]12" is greater than or equal to 10%.
Return: F

Enquiry: Is inhibition at 10 µM at least 10%? Consider C[N+]1(C)[C@@H]2CC[C@H]1C[C@@H](OC(=O)C(CO)c1ccccc1)C2 (stereo partly shown) [Methylatropine Nitrate]
Return: F

Enquiry: Determine whether this compound has inhibition at 10 µM no lower than 10%: "Clc1cc(Cl)c(OCC#CI)cc1Cl"
Return: T

Enquiry: Hi team, for Cc1cc2c(OCC(CNC(C)(C)C)OC(=O)c3ccccc3)cccc2[nH]1 (stereo not shown) , is the recorded inhibition at 10 µM at or above 10%?
Return: T

Enquiry: Quick check: does "OCCN1C[C@H](O)[C@@H](O)[C@H](O)[C@H]1CO" have inhibition at 10 µM greater than or equal to 10%?
Return: F

Enquiry: Given the entry "COc1ccc2cc(CCC(C)=O)ccc2c1" , answer whether its inhibition at 10 µM meets or surpasses 10%.
Return: F

Enquiry: Reported inhibition at 10 µM reaches at least 10% for C#CC1(O)CC[C@H]2[C@@H]3CCC4=CC(=O)CC[C@@H]4[C@H]3CC[C@@]21CC (stereo partly shown) ?
Return: F

Enquiry: Quick check, inhibition at 10 µM >= 10%? CC1CCc2c(N3CCC(O)CC3)c(F)cc3c(=O)c(C(=O)O)cn1c23 (stereo not shown)
Return: F
